Measured Anti-PSMA Fab signal in the presence of PSMA by item
# systemName: T1, Anti-PSMA Fab (SEQ ID NOs: 19, 20)
# T1 construct: In the phage ELISA the Fab was biotinylated and captured on neutravidin coated plates; also called 006 PSMA Fab
# protocol: phage binding ELISA on captured PSMA Fab, wells pre-incubated with PSMA antigen as competitor
// keep it numeric: no unit symbol after the value

Entry IPKLCKPSWMCLFY (Clonal phage of the Peptide-180 library) [Phage-2098] : reported Anti-PSMA Fab signal in the presence of PSMA = ? 0.185

Entry EAKWCIPAWMCSGV (Clonal phage of the Peptide-180 library) [Phage-2101] : reported Anti-PSMA Fab signal in the presence of PSMA = ? 0.0654

Entry FEKWCIPAWMCAAV (Clonal phage of the Peptide-180 library) [Phage-2092] : reported Anti-PSMA Fab signal in the presence of PSMA = ? 0.112

Entry WGKLCIPEWMCTTQ (Clonal phage of the Peptide-180 library) [Phage-2095] : reported Anti-PSMA Fab signal in the presence of PSMA = ? 0.0687

Recorded values, source patent US20260242478A1.
